# test.system: T1, human LILRA3 (human, UniProt Q8N6C8 24-439)
# T1 construct: whole, on cells; also called hLILRA3
# T1 sequence (Q8N6C8 24-439): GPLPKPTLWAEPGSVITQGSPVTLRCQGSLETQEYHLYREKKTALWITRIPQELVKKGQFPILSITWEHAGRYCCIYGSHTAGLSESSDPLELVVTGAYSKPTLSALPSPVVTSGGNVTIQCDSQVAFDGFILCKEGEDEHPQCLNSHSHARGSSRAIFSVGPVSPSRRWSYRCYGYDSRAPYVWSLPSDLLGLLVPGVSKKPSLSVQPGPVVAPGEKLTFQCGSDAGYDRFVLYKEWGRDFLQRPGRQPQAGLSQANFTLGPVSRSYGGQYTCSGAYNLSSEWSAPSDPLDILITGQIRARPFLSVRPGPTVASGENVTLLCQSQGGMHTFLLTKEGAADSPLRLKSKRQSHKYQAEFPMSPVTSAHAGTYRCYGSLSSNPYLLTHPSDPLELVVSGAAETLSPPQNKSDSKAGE
# assay.name: FACS, 293F-hLILRA3 cells
Documented MFI across a set of binders
test.readout: MFI (MFI)

2-H8-C9-F7-E2 (antibody, V domains shown, mouse monoclonal hybridoma antibody) VH: EVQLQQSGAELVKPGASVKLSCKASGYTFTNYWMHWVKQRPGQGLEWIGEINPSNGRTNYNEKFKSKATLTVDKSSSTAYMQLSSLTSEDSAVYYCARGSLTTVVPFDYWGQGTTLTVSS VL: DIQMTQTPSSLSASLGGKVTITCKASQDINNYIAWYQHKPGKGPRLLIHYTSTLQPGIPSRFSGSGSGRDYSFSISNLEPEDIATYFCLQYDILLTFGGGTKLEK    21.7
27-G5-E9-B8 (antibody, V domains shown, mouse monoclonal hybridoma antibody) VH: EVQLVESGGGLVQPGGSRKLSCAASGFTFSSFGMHWVRQAPEKGLEWVAYISSGSSTIYYADTVKGRFTISRDNPKNTLFLQMTSLRSEDTAMYYCARSTGTGAMDYWGQGTSVTVSS VL: DIQMTQTTSSLSASLGDSVTFSCRASQDISNYLNWYQQKPDGTVKLLISYTSRLHSGVPSRFSGSGSGTDYSLTISNLEQEDIATYFCQQGNALPWTFGGGTKLEIK    19.5
7-B4-C1-C9 (antibody, V domains shown, mouse monoclonal hybridoma antibody) VH: EVQLQQSGTELVKPGASVKLSCKASGYTFTNYWMHWVKQRPGQGLEWIGEINPSNGRTNYNEKFKTKATLTVDKSSSTAYMQLSSLTSEDSAVYYCARSTYYGYDWYFDVWGAGTTVTVSS VL: DIVLTQSPSSMYASLGERVTITCKASQDINSYLSWFQQKPGKSPKTLIYRANRLLDGVPSRFSGGGSGQDYSLTISSLEHEDMGIYYCLQCDEFPHTFGGGTKLEIK    25.2

Just for reference, patent US20250361295A1 is where these values come from.
